assay: NCI Yeast Anticancer Drug Screen. Data for the mec2-1 strain (AID 157); details: S. cerevisiae mec2-1 strain, at 50.0 µM
This is part of a sample that, as a whole, favours compounds with a hit. Of some 79,000 tested, about 15% had one in any assay. Activity calls are given as the source filed them. Rule as the data show it: active = growth inhibition above about 70%; inactive = the rest.
Labels: active, inactive

>>> group("C#Cc1cccc(N=Cc2cc(Cl)cc(Cl)c2O)c1")
"active"
>>> group("CC(C)(C)CCCC(C(=O)O)c1ccccc1 (centres undefined)")
"active"
>>> group("COC(=O)C1C(c2ccccc2)=N[C@@H](c2ccccc2)[C@H]1C(=O)OC (some centres undefined)")
"inactive"
>>> group("CC1CCCCN(CCN(Cc2ccccc2)c2ccccc2)C1 (centres undefined)")
"inactive"
>>> group("CCOc1ccc2c(c1)n([O-])c1cc(Br)ccc1[n+]2=O")
"active"
>>> group("CCc1ccc(/C=C/C(=O)C2CN(CC)CCC2(O)/C=C/c2ccc(CC)cc2)cc1 (centres undefined)")
"active"
>>> group("COc1ccc(CSC(=S)Nc2ccc(SC)c(Cl)c2)cc1")
"active"
>>> group("Clc1ccc2nc(Cl)c(Cl)nc2c1")
"inactive"
>>> group("CCCN1CSC(=S)N(CCC)C1")
"active"
>>> group("CN1COc2c(Cl)cc(Cl)cc2C1")
"inactive"
>>> group("CC1(C)[C@@H]2CC[C@]1(C)[C@@H](OC(=O)CSC#N)C2")
"active"
>>> group("O=C(Nc1ccccc1C(=O)O)c1ccccc1")
"inactive"
>>> group("O=C1C=CCCCC1(c1ccccc1)c1ccccc1")
"active"
>>> group("O=C1CC2Sc3ccccc3N=C2N1c1ccc(Cl)cc1Cl (centres undefined)")
"active"
>>> group("CC(C)N=C(NC(C)C)SCCCCCCSC(=NC(C)C)NC(C)C")
"inactive"
>>> group("COc1cccc2c1C(=O)c1c(O)c3c(c(O)c1C2=O)CC(O)(C(C)=O)CC3OC1CC(NCC2(O)OCC(O)C(O)C2O)C(O)C(C)O1 (centres undefined)")
"active"
>>> group("O=C(CN1CCCC1)Nc1nc(-c2ccc(Cl)cc2)cs1")
"inactive"
>>> group("O=C(O)c1ccccc1-c1c2cc(I)c(=O)c(I)c-2oc2c(I)c(O)c(I)cc12")
"active"
>>> group("OCc1c2c(cc3c1CC1(C3)Cc3cc4c(c(CO)c3C1)CCC4)CCC2")
"inactive"
>>> group("COC(=O)C1(C)CC2C(C)(CCC3(C)C4=CC=C5C(=CC(=O)C(O)=C5C)C4(C)CCC23C)CC1O (centres undefined)")
"active"
>>> group("c1ccc2c(c1)Cc1c-2nc2ccccc2c1N1CCOCC1")
"active"
>>> group("O=C1C=CC(=O)N1c1ccc(Cl)cc1")
"active"
>>> group("c1ccc(SSc2ccccn2)nc1")
"active"
>>> group("CC(=O)OCCCCCCCCCCCCCCO")
"inactive"

###

experiment: NCI Yeast Anticancer Drug Screen. Data for the mec2-1 strain (AID 157); conditions: S. cerevisiae mec2-1 strain, at 50.0 µM (retest, dose inferred, filed as 5.0), stronger effect = higher value
Compounds without any hit were thinned out: in the full panel of roughly 79,000, 15% have a hit.
The reader will find reported growth inhibition values listed item by item below.
recorded.metric: growth inhibition (%)

>>> meas_value("Cc1ccc(N=C2SC(=S)N(CCC[N+](C)(C)C)C2=Nc2ccc(C)cc2)cc1")
100
>>> meas_value("CC(C)(C)N1C(=O)C(Cl)(C#N)C1c1ccccc1 (stereo unspecified)")
8
>>> meas_value("CCOC(=O)/C(=C\\c1cccc(Br)c1)C(C)=O")
99
>>> meas_value("CC1=C(C(=S)Nc2ccc(Cl)c(C(=O)OC(C)C)c2)SCCO1")
54
>>> meas_value("CCOC(=O)c1ccc(C(C)C)cc1")
100
>>> meas_value("CCOP(=O)(OCC)/C(C#N)=C/c1ccc(C(F)(F)F)cc1")
94
